% Competition compared to the related control group values by entry
molecular target: polyclonal antibodies in mouse sera specific for human PCSK9 aa 153-162 or aa 153-165; assay: competition ELISA, 20 ug peptide with sera, plate coated with m2 (competitor)
Give just the numeric value; % need not be written.

Solved cases (8 shown):
>>> df
          binder  reported_value
0     SIPWNLERIA              80
1     SVPWNLERIL              59
2     SVPWNLERTT              73
3     SVPWNLERIT              62
4  SIPWNLERITPPL              66
5  SIPWNLDRITPPR              53
6     AIPWNLERIT              88
7  SIPWNLERITPVR              75

Query: What value of measured % Competition compared to the related control group is listed for SQPWNLERIT ?
Reply: 30

Query: Try the binder SQPWSLERTL
Reply: 53

Query: Try the binder SIPANLERIT
Reply: 8
